Test: Counterscreen qHTS for Inhibitors of Tau Fibril Formation, Fluorescence Polarization; note: nearly all actives have a fitted effect of over 55% in size; note: potency is the fitted concentration of half-maximal effect; tags give direction and shape of the fitted curve or compound fluorescence and quenching
Conditions: tau K18 P301L Alexa594 fluorescence, heparin fibrillization; series mostly up to 57.7 µM
Among all 280,000 compounds or so, about 2,600 (0.93%) were called active. About 8% were inconclusive and are not listed. This is one part of a sample in which actives are shown more often than they occur.
QUANTITY KIND: Potency

Solved entries (count: 4):
COMPOUND	Potency
Cc1cc(C)c(/C=C/c2onc(C)c2S(=O)(=O)N2CCC(C(=O)Nc3ccc(Cl)cc3C)CC2)c(C)c1	inactive
COc1ccc2[nH]cc(/C=C(/C#N)S(=O)(=O)c3ccccc3)c2c1	25.1 µM [quencher] (active)
CC(C)(C)OC(=O)N1CCC(c2c(C(=O)N3CCc4ccccc4C3)cnn2-c2ccc(F)cc2)CC1	inactive
Cn1c(=O)c2c(nc(NCCc3ccccc3)n2Cc2ccccc2Br)n(C)c1=O	inactive

Query: Report Potency for Cc1cc(C)cc(NC(c2nnc(-c3cccc(F)c3)o2)c2ccc(F)cc2Cl)c1 (stereo not given) please.
Response: inactive

* * *

Experiment: Counterscreen qHTS for Inhibitors of Tau Fibril Formation, Fluorescence Polarization; note: nearly all actives have a fitted effect of over 55% in size
Conditions: tau K18 P301L (four-repeat tau fragment) Alexa594 fluorescence, heparin fibrillization; series mostly up to 57.7 µM
Hit rate of the full screen: of about 280,000 compounds, about 2,600 (0.93%) were called active. Not shown: some 8% with an inconclusive outcome. Calls follow the shape of the dose curve; as a rule, active = well fitted curve in the direction sought with a large enough effect; inconclusive = small, poorly fitted or top-dose-only effect; inactive = flat fitted curve, though single readings scatter. For the sample, actives were picked, then their nearest neighbours and some compounds at random.
Respond with a class label; see True (active), False (inactive)

Query: Which outcome was entered for the compound O=C(N/N=C/c1ccc(OCc2ccccc2)cc1)c1ccc(O)cc1 in this test?
Response: False

Query: In this assay, the call recorded for CCN(CC)c1ccc2oc(=O)c(C)nc2c1 was what?
Response: True

Query: Can you look up the reported call for Fc1ccc(-c2nn(-c3ccccc3Cl)c3c2cnc2ccccc23)cc1 for me?
Response: False

Query: # lookup: test call for O=C(N/N=C/c1sc(N2CCCCC2)nc1-c1cccs1)c1cccnc1
Response: True

Query: What outcome does the record of this test show for Cc1nc(NNC(=O)c2ccccc2)cc(-c2ccccc2)n1 ?
Response: False

Query: Answer briefly: the call reported for Nc1cccc(CCc2nc3ccccc3[nH]2)c1 in this assay.
Response: False

Query: Would you mind telling me which call this test gave CN(C)CCCn1c(-c2ccc(Cl)cc2)csc1=Nc1ccccc1 ?
Response: False

Query: How did this test come out for COc1cccc(/C=N\NC(=O)C2=NNC(=O)C2C)c1O (stereo not drawn) ?
Response: False

Query: Test call for this compound, please: O=C(N/N=C/c1c[nH]c2ccccc12)c1cc2ccccc2o1
Response: False

Query: What call does the record list for COc1cccc(/C=N/Nc2cc(C)nc(-c3ccccc3O)n2)c1O ?
Response: True

Query: Per the assay record, what outcome was assigned to C[n+]1ccc(/C=C/c2c[nH]c3ccccc23)cc1 ?
Response: False

Query: What classification did COc1cccc(/C=N/NC(=O)c2[nH]nc3c2CCc2ccccc2-3)c1O end up with in this test?
Response: False

Query: Recorded test outcome, item Fc1ccc(CN2CCc3nc(Nc4ccccc4)ncc3C2)cc1F
Response: False

Query: Please share the test call associated with O=C(N/N=C/c1ccccn1)c1cccnc1 .
Response: False

Query: Test call for this compound, please: Cc1cc(NS(=O)(=O)c2ccc3oc(=O)c4ncn(C)c4c3c2)ccc1Br
Response: False

Query: Please share the test call associated with COc1ccc(CCNC(=O)C(=O)NCC(c2ccco2)S(=O)(=O)c2cccs2)cc1OC (stereo not drawn) .
Response: False

Query: I'd appreciate the recorded outcome for COc1ccc(-n2nc(C(=O)NCCc3ccc(Cl)cc3)c3c4ccccc4n(C)c3c2=O)cc1Cl from this test.
Response: False

Query: Check the results log: what was the call for CCN(CC)c1ccc(/C=N/Nc2nc(C)cc(C)n2)c(O)c1 ?
Response: False

Query: Identify the outcome logged in this assay for the compound shown: Clc1ccc(Nc2nc(-c3cccs3)cs2)nc1
Response: True

Query: So what was the verdict on CCN(CC)c1ccc2c(Nc3ccccc3)c(C=O)c(=O)oc2c1 in this test?
Response: False

Query: Please indicate how the test categorized Oc1ccc(/C=N/N(Cc2ccccc2)c2ccccc2)cc1 .
Response: True

Query: // return assay outcome for CCc1ccc(C2C(C(=O)Nc3ccccc3)=C(C)Nc3c(C(=O)Nc4ccc(C)cc4)cnn32)cc1 (stereo not drawn)
Response: False

Query: For this compound, state the assay outcome: c1cnc(Nc2nc(-c3ccc4ccccc4c3)cs2)nc1
Response: False
